B1: LOXL2 (parent)
chain: YVEVKEGKTWKQICDKHWTAKNSR

- Variants of: B1
- Protocol text: protein stability index of a GFP-peptide fusion (GPS, HEK-293T) (PSI 1-6); higher = more stable;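 further: lentivirally expressed fusions sorted by FACS into six bins by GFP to DsRed ratio, PSI derived from sequencing read proportions per bin multiplied by bin number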
- Test parameters: c terminus: a fixed tail appended
Endpoint name: protein stability index

In [3]: df
Out[3]:
    variant_annotation  experimental_value
 0                 K5R                3.94
 1                 E3F                2.52
 2                K11M                 2.1
 3                C14I                2.16
 4                T19M                1.99
 5                A20V                2.11
 6                K16P                1.95
 7                W10V                2.78
 8                K11V                 2.1
 9                I13Y                 1.6
10                 G7Y                2.18
11                R24H                3.07
12                W18V                2.66
13                 K8H                1.44
14                D15H                2.49
15                 T9S                2.56
16                C14D                 2.4
17                 E3Q                1.95
18                S23N                1.71
19                H17R                3.35
20                 K8G                1.85
21                D15Q                2.56
22                 Y1T                3.21
23                I13C                 2.6
24                T19P                2.11
25                R24C                2.72
26                Q12K                2.63
27                R24V                 2.2
28                N22R                 1.8
29                Q12H                3.06
30                K11S                3.37
31                 K5Y                1.78
32                K16L                2.42
33                 Y1V                 3.4
34                R24F                2.94
35                S23E                2.17
36                 E3Y                2.73
37                 Y1L                3.34
38                R24A                2.42
39                 V2L                2.72
40                 K5S                1.46
41                 E3I                2.53
42                H17P                3.06
43                N22G                2.13
44                 K5Q                3.01
45                A20M                2.35

The origin of these recorded values is the supplement of paper PMC10567573.
